The values you see were collected from patent US8629167B2.

Listed here: items and their measured IC50.
target: androgen receptor (Rattus norvegicus (Rat), UniProt P15207); test: androgen receptor binding assay (fluorescence polarization, AR-Fluormone complex); details: single determination or average of multiple determinations; read-out: Binding IC50 (nM), Compound AR-Binding Affinity
Sequence (P15207 whole entry, looked up): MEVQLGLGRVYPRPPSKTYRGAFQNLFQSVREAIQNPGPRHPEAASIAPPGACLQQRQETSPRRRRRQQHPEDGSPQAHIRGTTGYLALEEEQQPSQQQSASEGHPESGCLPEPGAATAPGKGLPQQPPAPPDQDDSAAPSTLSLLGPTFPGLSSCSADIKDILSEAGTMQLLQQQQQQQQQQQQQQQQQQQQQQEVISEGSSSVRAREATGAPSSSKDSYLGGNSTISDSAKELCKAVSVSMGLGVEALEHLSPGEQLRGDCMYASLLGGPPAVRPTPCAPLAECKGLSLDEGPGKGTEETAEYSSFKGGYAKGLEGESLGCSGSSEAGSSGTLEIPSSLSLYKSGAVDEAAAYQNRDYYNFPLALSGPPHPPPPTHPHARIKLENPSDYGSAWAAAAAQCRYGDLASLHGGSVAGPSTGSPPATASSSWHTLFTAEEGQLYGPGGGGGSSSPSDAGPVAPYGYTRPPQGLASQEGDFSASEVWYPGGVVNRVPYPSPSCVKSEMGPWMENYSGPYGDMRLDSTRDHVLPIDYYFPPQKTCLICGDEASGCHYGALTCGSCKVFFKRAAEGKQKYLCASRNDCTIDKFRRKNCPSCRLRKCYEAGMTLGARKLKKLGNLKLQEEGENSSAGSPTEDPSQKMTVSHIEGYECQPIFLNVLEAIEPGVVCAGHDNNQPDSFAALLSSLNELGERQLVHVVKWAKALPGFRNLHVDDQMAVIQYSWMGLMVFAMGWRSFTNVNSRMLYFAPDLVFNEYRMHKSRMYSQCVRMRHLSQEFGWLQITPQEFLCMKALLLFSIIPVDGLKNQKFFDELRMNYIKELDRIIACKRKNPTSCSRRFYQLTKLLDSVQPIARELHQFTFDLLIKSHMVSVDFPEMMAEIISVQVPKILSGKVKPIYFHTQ

entry-smiles: Cc1c(N[C@@H](c2nnc(-c3ccc(NC(=O)c4ccccc4)cc3)o2)[C@H](C)O)ccc(C#N)c1Cl
tested-target: androgen receptor (Rattus norvegicus (Rat), UniProt P15207)
IC50: 1000 nM
--
entry-smiles: C[C@H](O)[C@@H](Nc1ccc(C#N)c(Cl)c1)c1nnc(-c2ccc(S(C)(=O)=O)cc2)o1
tested-target: androgen receptor (Rattus norvegicus (Rat), UniProt P15207)
IC50: > 1000 nM
--
entry-smiles: Cc1c(N[C@H](c2ccc(-c3nnco3)cc2)[C@@H](C)OS(N)(=O)=O)ccc(C#N)c1Cl
tested-target: androgen receptor (Rattus norvegicus (Rat), UniProt P15207)
IC50: > 1000 nM
